B1: library; numbered along this chain (parent)
chain: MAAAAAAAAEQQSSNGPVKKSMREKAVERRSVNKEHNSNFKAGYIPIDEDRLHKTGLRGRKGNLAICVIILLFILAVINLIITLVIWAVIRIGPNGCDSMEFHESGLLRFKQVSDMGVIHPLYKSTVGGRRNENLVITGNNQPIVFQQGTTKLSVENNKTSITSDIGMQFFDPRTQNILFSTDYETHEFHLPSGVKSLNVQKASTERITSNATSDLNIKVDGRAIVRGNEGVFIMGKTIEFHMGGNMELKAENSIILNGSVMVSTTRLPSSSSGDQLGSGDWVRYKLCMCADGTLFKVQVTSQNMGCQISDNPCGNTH

Variants of: B1
Test: SGCB cell-surface expression functional score (HA stain, bin4 vs bin1, normalised to synonymous) (log10 ratio); higher = more cell-surface SGCB (functional)
observable: SGCB cell-surface expression functional score (log10)

> print(dat)
    variant.string  endpoint.value
 1           I255C            0.39
 2           Q176L           -0.17
 3           I218A           -0.08
 4           M305R           -0.25
 5           E206Y           -0.12
 6           T294W            0.57
 7           I225V            0.48
 8           Q201I            0.46
 9           N258H            0.33
10            S99N           -0.77
11           N134T           -0.26
12           G222I           -0.41
13            R60W          -0.101
14            L72A           -0.23
15           M305W           -0.29
16            R91K            0.34
17           P269I             0.5
18            H53E           -0.28
19            R60N             0.1
20            G16T           -0.27
21           P173S             0.5
22           P313M           -0.49
23            E35I            0.08
24           E185Q           -0.17
25           L153E           -0.79
26           V195F           -1.74
27           V226W           -1.37
28           N177T            0.39
29           Q147N            0.29
30            Q11F            0.07
31           V283Y           -0.55
32           S272N            0.08
33           L216P           -1.25
34           F102Y           -1.16
35           N132Y            0.44
36            I70M            0.77
37           L198A           -1.81
38           N157I           -0.06
39           N312D             0.1
40           D165F            0.07
41             A4F           -0.21
42           V298Y           -1.36
43            E24H            0.46
44            A65R           -0.07
45           I119S           -1.47
46           P313N            0.01
